- Test system: CCRF-CEM leukemia
- assayProcedure: NCI tumour cell line growth inhibition, 48 h
Items are presented alongside their recorded TGI.
endpointLabel: TGI

| compound | measurement |
| --- | --- |
| OCC1OC(n2cnc3c(Cl)nc(Nc4ccccc4)nc32)CC1O (configuration not stated) | > 100 µM |
| CCOC(=O)CNC(=O)c1ccccc1Nc1ccnc(C(F)(F)F)c1 | > 37.9 µM |
| CCc1ccccc1NC(=O)c1sc2nc3c(cc2c1N)C(=O)CCC3 | > 100 µM |
| CC(C)N=c1cc2n(-c3ccc(Cl)cc3)c3ccccc3nc-2cc1Nc1ccc(Cl)cc1 | > 100 µM |
| CN1NC(=Nc2ccccc2)Sc2c1cnn(-c1ccccc1)c2=O | > 100 µM |
| COc1cc2ncn(-c3cc(OCCc4ccccc4)c(C(N)=O)s3)c2cc1OC | > 25 µM |
| CCc1ccc2oc(-c3cc(O)c(-c4nc5cc(CC)ccc5o4)cc3O)nc2c1 | > 100 µM |
| O=C(Nc1cc(Cl)ccc1Cl)C(=O)C(c1cnc2ccccc2n1)[N+](=O)[O-] (configuration not stated) | > 100 µM |
| COC(=O)/C(C#N)=C1\CCC(O)N1 (configuration not stated) | > 100 µM |
| C=C1C[C@]23CCC4C(C)(C)C(=O)CC[C@]4(C)C2C[C@H]1C(O)C3=O (some centres not stated) | > 75 µM |
| COc1ccc(-c2ccc(/C=N/n3c(C)n[nH]c3=S)o2)c([N+](=O)[O-])c1 | > 100 µM |
| CC(C)CCCC(C)[C@H]1CCC2[C@H]3C(CC[C@@]21C)[C@@]1(C)CCC=C[C@]12C[C@@H]2[C@@H]3O (some centres not stated) | > 100 µM |
| Cc1cc(C2CC(O)C(CO)O2)cc2c(=O)[nH]c(N)nc12 (configuration not stated) | > 100 µM |
| COc1ccc(O)cc1 | > 100 µM |
| Cc1cn(C(Cc2ccccc2)OCCO)c(=O)[nH]c1=O (configuration not stated) | > 100 µM |
| c1cc2nnnn2nc1N1CCCC1 | > 100 µM |
| Cc1ccc(S(=O)(=O)OCC(=O)O)cc1 | > 100 µM |
| C=CCSS/C=C/CS(=O)CC=C (configuration not stated) | > 100 µM |
| O=C1CCCCC(=O)OC2(CCCCC2=O)CC1 (configuration not stated) | > 100 µM |
| Cc1[nH]c(=O)[nH]c(=O)c1/C=C/C(=O)O | > 1000 µM |
| O=c1[nH]/c(=C/c2ccc(OCc3ccccc3)cn2)c(=O)[nH]/c1=C/c1ccc(O)cc1 | > 100 µM |
| O=c1c2ncn(COCCCl)c2n(-c2ccccc2)c(=S)n1-c1ccccc1 | > 100 µM |

###

- Tested on: SF-268 CNS
- assayProcedure: NCI tumour cell line growth inhibition, 48 h
TGI for assorted compounds

| compound | TGI |
| --- | --- |
| CC1=COC(C)(C=C(C#N)C#N)CC1 (stereo not drawn) | > 100 µM |
| O=C(Cc1ccccc1)NN1C(=O)/C(=C\c2cccc(O)c2)SC1=Nc1ccccc1 | > 100 µM |
| CCOC(=N)CC(=O)Nc1cccc(C)c1C | > 100 µM |

###

- Test system: HL-60(TB) leukemia
- assayProcedure: NCI tumour cell line growth inhibition, 48 h
We begin with a simple list: items and their reported TGI.
endpointLabel: TGI

| compound | measurement |
| --- | --- |
| COc1ccc(Nc2nc(NS(=O)(=O)c3cc(C)c(Cl)cc3S)n[nH]2)cc1 | > 100 µM |
| CCCCCC(=O)NC(=S)Nc1nn[nH]n1 | > 100 µM |
| O=C1CC2C(=O)N(Cc3ccccc3)C1C=C2S(=O)(=O)c1ccccc1 (centres undefined) | > 100 µM |
| O=[N+]([O-])c1ccc2c(c1)C(c1ccccc1Cl)=Nc1cn[nH]c1N2 | > 25 µM |
| Nc1ccc(N=Nc2ccccc2)cc1 | > 100 µM |
| Cc1cc(C2(O)C=C(C(C)(C)C)C(=O)C(C(C)(C)C)=C2)c(C)cc1C1(O)C=C(C(C)(C)C)C(=O)C(C(C)(C)C)=C1 | > 100 µM |
| c1cc2nnnn2nc1N1CCCC1 | > 100 µM |
| CCN1C(=O)C(=C/C=C/c2ccc([N+](=O)[O-])cc2)C(=O)N(CC)C1=S | > 100 µM |
| O=C(O)c1ccc(S(=O)(=O)c2ccccc2[N+](=O)[O-])cc1 | > 10 µM |
